# System: sugar beet, Beta vulgaris
# PROCEDURE_DETAILS: Herbicidal activity, pre-emergence test (soil spray)
# Type: in vivo
# PARTICULARS: Dosage 5 kg/ha, assessed visually twelve days after spraying, 0-9 scale, 0 = growth as untreated control, 9 = death
# Protocol: To evaluate their herbicidal activity, compounds according to the invention were tested using as representative range of plants: maize, Zea mays (Mz); rice, Oryza sativa (R); barnyard grass, Echinochloa crusgalli (BG); oat, Avena sativa (0); linseed, Linum usitatissisum (L); mustard, Sinapsis alba (M); sugar beet, Beta vulgaris (SB) and soya bean, Glycine max (S). The tests fall into two categories, pre-emergence and post-emergence. […]
ATTRIBUTE_MEASURED: Pre-emergence SB (herbicidal effect rating)

Solved entries:
- COMPOUND: "CC(C)C1(C)NC(c2cc3c(cc2C(=O)O)OCO3)=NC1=O (centres unmarked)"
  SUBJECT_OF_TEST: "sugar beet, Beta vulgaris"
  OBSERVED: 8
- COMPOUND: "CC(C)C1(C)NC(c2nc3cc4c(cc3cc2C(=O)[O-])OCO4)=NC1=O.[Na+] (centres unmarked)"
  SUBJECT_OF_TEST: "sugar beet, Beta vulgaris"
  OBSERVED: 8
- COMPOUND: "COC(=O)c1cc2cc3c(cc2nc1C1=NC(C)(C(C)C)C(=O)N1C(C)=O)OCO3 (centres unmarked)"
  SUBJECT_OF_TEST: "sugar beet, Beta vulgaris"
  OBSERVED: 8
- COMPOUND: "COC(=O)c1cc2cc3c(cc2nc1C1=NC(=O)C(C)(C(C)C)N1)OCO3 (centres unmarked)"
  SUBJECT_OF_TEST: "sugar beet, Beta vulgaris"
  OBSERVED: 6

API: the following record is the query input.
Per the reported sugar beet, Beta vulgaris data, CC(C)C1(C)NC(c2nc3cc4c(cc3cc2C(=O)O)OCO4)=NC1=O (centres unmarked) has Pre-emergence SB (herbicidal effect rating) of 8

---

# reported Soil drench 10/kg/ha S (herbicidal effect rating); entries follow
# Test system: soya bean, Glycine max
# PROCEDURE_DETAILS: Herbicidal activity, post-emergence soil drench test
# Assay type: in vivo
# PARTICULARS: 10 kg/ha soil drench; assessed visually thirteen days after drenching; 0-9 scale, 0 = growth as untreated control, 9 = death
Kindly provide the number alone.

Solved entries:
- COMPOUND: "CC(C)C1(C)NC(c2nc3cc4c(cc3cc2C(=O)O)OCO4)=NC1=O (stereo not shown) [Example 2]"
  OBSERVED: 6
- COMPOUND: "COC(=O)c1cc2cc3c(cc2nc1C1=NC(=O)C(C)(C(C)C)N1)OCO3 (stereo not shown) [Example 1]"
  OBSERVED: 4
- COMPOUND: "CC(C)C1(C)NC(c2nc3cc4c(cc3cc2C(=O)[O-])OCO4)=NC1=O.[Na+] (stereo not shown) [Example 4]"
  OBSERVED: 6

API: the following record is the query input.
So, COC(=O)c1cc2cc3c(cc2nc1C1=NC(C)(C(C)C)C(=O)N1C(C)=O)OCO3 (stereo not shown) [Example 3] ? Its Soil drench 10/kg/ha S (herbicidal effect rating) was 0

---

# Test system: sugar beet, Beta vulgaris
# PROCEDURE_DETAILS: Herbicidal activity, pre-emergence test (soil spray)
# Format: in vivo
# PARTICULARS: Dosage 1 kg/ha, assessed visually twelve days after spraying, 0-9 scale, 0 = growth as untreated control, 9 = death
ATTRIBUTE_MEASURED: Pre-emergence SB (herbicidal effect rating)
Kindly provide the number alone.

Solved entries:
- MOLECULE: "CC(C)C1(C)NC(c2nc3cc4c(cc3cc2C(=O)[O-])OCO4)=NC1=O.[Na+] (centres unmarked)"
  OBSERVED: 8
- MOLECULE: "COC(=O)c1cc2cc3c(cc2nc1C1=NC(=O)C(C)(C(C)C)N1)OCO3 (centres unmarked)"
  OBSERVED: 6
- MOLECULE: "COC(=O)c1cc2cc3c(cc2nc1C1=NC(C)(C(C)C)C(=O)N1C(C)=O)OCO3 (centres unmarked)"
  OBSERVED: 4
- MOLECULE: "CC(C)C1(C)NC(c2cc3c(cc2C(=O)O)OCO3)=NC1=O (centres unmarked)"
  OBSERVED: 7

API: the following record is the query input.
Per the reported sugar beet, Beta vulgaris data, CC(C)C1(C)NC(c2nc3cc4c(cc3cc2C(=O)O)OCO4)=NC1=O (centres unmarked) has Pre-emergence SB (herbicidal effect rating) of 8
